The origin of these recorded values is paper PMC4274664.

- ASSAY_SYSTEM: rAtACBP6 (Arabidopsis thaliana, UniProt P57752)
- Construct: made in house; host or cells: Escherichia coli
- Sequence (P57752 1-92): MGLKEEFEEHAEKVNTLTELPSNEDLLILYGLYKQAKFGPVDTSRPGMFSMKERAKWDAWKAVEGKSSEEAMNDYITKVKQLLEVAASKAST
- METHOD_SUMMARY: ITC of acyl-CoA esters binding to rAtACBP6
- STATED_CONDITIONS: ITC, 30°C, 10 mM sodium phosphate buffer pH 7.0
Kindly state ΔS for each of the entries shown.

CCCCCCCCCCCCCCCCCC(=O)SCCNC(=O)CCNC(=O)[C@H](O)C(C)(C)COP(=O)(O)OP(=O)(O)OC[C@H]1O[C@@H](n2cnc3c(N)ncnc32)[C@H](O)[C@@H]1OP(=O)(O)O [18:0] ... -6.6 cal/(mol·K)
CCCCCCCCCCCCCC(=O)SCCNC(=O)CCNC(=O)[C@H](O)C(C)(C)COP(=O)(O)OP(=O)(O)OC[C@H]1O[C@@H](n2cnc3c(N)ncnc32)[C@H](O)[C@@H]1OP(=O)(O)O [14:0] ... -4.6 cal/(mol·K)

Let us move to another entry and its ΔS.
Reading of ΔS for CCCCCCCC/C=C\CCCCCCCC(=O)SCCNC(=O)CCNC(=O)[C@H](O)C(C)(C)COP(=O)(O)OP(=O)(O)OC[C@H]1O[C@@H](n2cnc3c(N)ncnc32)[C@H](O)[C@@H]1OP(=O)(O)O [18:1, oleoyl-CoA] with rAtACBP6 (Arabidopsis thaliana, UniProt P57752): 11.4 cal/(mol·K)
